Assign Kd to each entry below.
Assayed system: T1, Human VEGF-A 165 (human, UniProt P15692 207-395)
T1 construct: also called hVEGF165; huVEGF-A165
T1 sequence (P15692 other isoform, or with tags, fused parts or gaps limits assumed): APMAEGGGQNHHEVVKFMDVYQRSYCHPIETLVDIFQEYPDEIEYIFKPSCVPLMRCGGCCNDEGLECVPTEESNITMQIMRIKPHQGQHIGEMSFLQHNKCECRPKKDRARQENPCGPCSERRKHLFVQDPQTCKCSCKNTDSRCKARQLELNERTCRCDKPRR
Assay explanation: Biacore SPR (Example 1.1)
Value expressed in nM; do not type the unit.

Enquiry: Fill in the blank: the reported Kd of BEW-1B4-C4 (antibody, IgG2b, V domains shown, Rat hybridoma monoclonal antibody) VH: QIQLVQSGPELKKPGESVKISCKASGYSFTNYGMYWVKQAPGQGLQYMGWIDTETGKPTYTDDFKGRFVFFLETSASTAYLQINNLKNEDMATYFCARWSGDTAGIRGPWFAYWGQGTLVTVSS VL: DIRMTQSPASLSASLGETVNIECLASEDIYSDLAWYQQKPGKSPQLLIYNANDLQKGVPSRFSGSGSGTQYSLKINSLQSEDVATYFCQQYNYYPGTFGAGTKLELK is ____.
Return: 0.0074

Enquiry: Param item: BEW-9D2-E8 (antibody, IgG2a, V domains shown) VH: QIQLVQSGPELKKPGESVKISCKASGYTFTNYGMYWVKLAPGQGLQYLGWINTETGKPTYADDFKGRFVFFLETSASTAYLQINNLRNEDMATYFCARPSDYYDGFWFAYWGQGTLVTVSS VL: DTVLTQSPALTVSPGERVSISCRASEWVNSYMHWYQQNPGQQPKLLIYKASNLASGVPARFSGSGSGTDFTLTLDPVEADDTATYFCQQSWNDPLTFGSGTKLEIK
Return: 0.014
